inhibition by entry:
- SYSTEM: L-lactate dehydrogenase (Plasmodium falciparum (isolate CDC / Honduras)) (UniProt Q27743)
- Sequence (Q27743 whole entry, looked up): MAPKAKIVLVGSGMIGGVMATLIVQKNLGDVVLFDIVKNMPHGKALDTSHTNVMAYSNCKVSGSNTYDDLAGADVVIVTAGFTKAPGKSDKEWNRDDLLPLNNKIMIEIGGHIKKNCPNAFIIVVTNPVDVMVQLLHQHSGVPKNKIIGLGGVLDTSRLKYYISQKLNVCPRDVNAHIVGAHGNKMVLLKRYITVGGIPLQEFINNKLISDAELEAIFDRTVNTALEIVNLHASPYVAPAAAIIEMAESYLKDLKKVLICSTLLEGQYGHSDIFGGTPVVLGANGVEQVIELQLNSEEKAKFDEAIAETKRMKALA
- TEST: PfLDH activity inhibition – cell lysate, 3D7 strain, counter-screen for P. falciparum growth inhibition project (AID 2304);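 note: 0% = vehicle and 100% = reference inhibitor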
- CONDITIONS_USED: P. falciparum 3D7 crude extract, LDH APAD/NBT absorbance; at 2 µM; hits give high values
Calls of active or inactive are those of the source. The rule behind the calls is not given here.
PROPERTY_MEASURED: inhibition

>>> result("N#Cc1ccc(N2CCN(Cc3cccc(-c4cccc(-c5nc6ccc(F)cc6[nH]5)c4)c3)CC2)nc1")
"3% (inactive)"
>>> result("CCOc1cc(Cc2cnc(N)nc2N)cc(OCC)c1-n1cccc1")
"-2% (inactive)"
>>> result("Cc1ccccc1C1CCN(C2CCC(NC(=O)c3ccc(-c4ccccn4)s3)CC2)CC1 (stereo not given)")
"-1% (inactive)"
>>> result("CN1CCN(CCCNCc2cccc(-c3ccc(CNCCc4ccccc4)cc3)c2)CC1")
"-9% (inactive)"
>>> result("O=C(c1cccc(-c2cccc(-c3nc4ccccc4[nH]3)c2)c1)N1CCCCC1CN1CCC(O)C1 (stereo not given)")
"2% (inactive)"

====

- TEST: HepG2 cytotoxicity, primary screen, cytotoxicity control for P. falciparum antimalarial project, cell-based, ATP luminescence (AID 2303);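 note: 0% = DMSO wells and 100% = digitonin-killed cells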
- CONDITIONS_USED: HepG2 viability, 24-48 h, at 10 µM, hits give high values
PROPERTY_MEASURED: inhibition (%)

>>> result("O=C(Nc1cccc(-c2ccc(-c3nc4ccc(C(F)(F)F)cc4[nH]3)cc2)c1)c1ccncc1")
79
>>> result("Cc1nn(-c2ccnc3cc(Cl)ccc23)c(C)c1C(=O)NCc1cc(Cl)cc(Cl)c1")
-10
>>> result("CC1(C)N=C(N)N=C(N)N1OCc1cc(Cl)c(CON2C(N)=NC(N)=NC2(C)C)cc1Cl")
21
>>> result("Cc1noc(C)c1-c1cccc(CNCc2cccc(-c3cccc(-c4nc5ccc(F)cc5[nH]4)c3)c2)c1")
18
>>> result("O=C(/C=C/c1ccc(Cl)c(Cl)c1)N1CCC(CCN2CCC(c3c[nH]c4cc5c(cc34)OCO5)CC2)CC1")
46
>>> result("O=C(/C=C/c1ccc(Cl)c(Cl)c1)NCCCCCN1CCC(CCNC(=O)c2snnc2-c2ccccc2)CC1")
54
>>> result("Cc1cc(C)cc(OCC(O)CN(Cc2cc(Cl)cc(Cl)c2)C(=O)Nc2ccc([N+](=O)[O-])cc2)c1 (stereo not given)")
-3
>>> result("CC(C)CCN=C(N)Nc1ccc(OCCCCCOc2ccc(NC(N)=NCCC(C)C)cc2)cc1")
14
>>> result("N=c1n(Cc2ccccc2)c2ccccc2n1CC(O)c1ccc(Cl)c(Cl)c1 (stereo not given)")
40
>>> result("Oc1ccc2[nH]c(-c3ccc(F)cc3F)nc2c1CN1CCC(O)(c2ccccc2)CC1")
16
>>> result("CCCCCCC(C)c1cc(OCCN(CC)CC)c2c(c1)OC(C)(C)C=C2c1ccncc1 (stereo not given)")
14
>>> result("Cc1cccc2[nH]c(-c3cccc(-c4ccc(CNCc5ccc(S(C)(=O)=O)cc5)cc4)c3)nc12")
8
>>> result("CC(C)N1CCN(C(=O)c2ccc(CNCCCN3CCN(c4ccccc4C(F)(F)F)CC3)s2)CC1")
32
>>> result("Cc1[nH]c(C)c(-c2csc3ccccc23)c(=O)c1Cl")
7
>>> result("CS(=O)(=O)c1ccc(CNCc2ccc(-c3ccc(-c4nc5ccc(C(F)(F)F)cc5[nH]4)cc3)cc2)cc1")
26
>>> result("O=C(NCCc1ccccc1)N(Cc1ccccc1-c1ccc(CNC2CCCC2)cc1)C1CCN(Cc2ccccc2)CC1")
96
>>> result("CCNc1cc(C(=O)N[C@@H](Cc2ccccc2)[C@H](O)CNC23CC4CC(CC(C4)C2)C3)cc(N2CCCCS2(=O)=O)c1")
3
>>> result("CCn1c(Sc2ccc([N+](=O)[O-])c(C#N)c2)nnc1-c1ccc(Cl)cc1")
2
>>> result("O=C(Nc1ccc(Br)cc1)c1cc(Br)ccc1NS(=O)(=O)c1ccc(C(F)(F)F)cc1")
53
>>> result("OCCN1CCN(Cc2ccc(-c3ccc(-c4nc5ccccc5[nH]4)cc3)cc2)CC1")
6
>>> result("O=C(Nc1cc(C(F)(F)F)ccc1N1CCOCC1)C(Cl)(Cl)Cl")
-5
>>> result("CC12CCC(C(=O)N(CC(O)Cn3c4ccc(Cl)cc4c4cc(Cl)ccc43)C1=O)C2(C)C (stereo not given)")
-1
>>> result("O=c1ccc2ccc(F)c3c2n1CC3CN1CCC(NCc2cccc(-c3cccs3)c2)CC1 (stereo not given)")
17
>>> result("CS(=O)(=O)CCNCc1ccc(-c2ccc3c(Nc4ccc(F)cc4Cl)ccnc3c2)o1")
29
>>> result("CN(C)c1cc(NC(=O)Nc2ccccc2)c2ccccc2n1")
11
>>> result("CC(C)c1ccc(NC(=O)c2ccc(NCCCN(C)Cc3ccccc3)c([N+](=O)[O-])c2)cc1")
21
>>> result("CCc1ccc(O)c(-c2cc(C(=O)Nc3cccnc3)[nH]n2)c1")
-4
>>> result("O=C(Nc1ccc(OC2CCN(Cc3ccsc3)CC2)c(Cl)c1)c1ccco1")
7
>>> result("Fc1ccc2nc(-c3ccc(-c4ccc(CNCc5ccccc5)cc4)cc3)[nH]c2c1")
35
>>> result("CC(Sc1nc2sccc2c(=O)n1C)C(=O)Nc1ccc2c(c1)OCO2 (stereo not given)")
5

====

growth inhibition by entry:
- TEST: antimalarial activity against Dd2 strain (AID 2302);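 note: 0% = DMSO untreated growth and 100% = chloroquine plus artemisinin killed control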
- CONDITIONS_USED: P. falciparum Dd2 in RBCs, LDH growth readout, 72 h; at 2 µM; hits give high values
PROPERTY_MEASURED: growth inhibition (%)

>>> result("Fc1ccc2nc(-c3ccc(-c4ccc(CN5CCC(CCN6CCCCC6)CC5)cc4)s3)[nH]c2c1")
101
>>> result("CN1CCN(c2nsc3ccc(-c4ccc(OCCN5CCCC5)cc4)cc23)CC1")
99
>>> result("O=C(Nc1cccc(-c2cc(-c3c(Cl)cccc3Cl)no2)c1)c1cnc2ccccc2c1")
34
>>> result("COc1cc(C2NCC3(CCOCC3)c3cc4c(cc32)OCCO4)cc(OC)c1OC (stereo not given)")
2
>>> result("CC1=C(C(=O)OCCOCc2ccccc2)C(c2ccccc2C(F)(F)F)C(C(=O)OCCOCc2ccccc2)=C(C)N1")
87
>>> result("CC1(C)N=C(N)N=C(N)N1OCCCNC(=O)c1ccc([N+](=O)[O-])cc1")
97
>>> result("O=C(Nc1ccc(S(=O)(=O)NCCCN2CCOCC2)cc1)c1cc(-c2ccccc2)n[nH]1")
29
>>> result("Cc1cc(C)c2cc(CNCCCNc3nc4ccccc4[nH]3)[nH]c2c1")
-2
>>> result("CCn1c2c(c(=N)c3ccccc31)CCC2")
61
>>> result("FC(F)(F)COc1c(CCNCCCCNCCc2ccc3ccccc3c2OCC(F)(F)F)ccc2ccccc12")
97
>>> result("CC(C)(C)c1ccc(CN2CCC(CNC(=O)c3cc(-c4cccc(C(F)(F)F)c4)cs3)C2)cc1 (stereo not given)")
84
>>> result("CCC[C@@H]([C@@H](CC(C)C)C(=O)N[C@@H](CCCNc1nccc(C(F)(F)F)n1)C(=O)Nc1nccs1)N(O)C=O")
98
>>> result("COc1ccc(NC(=O)[C@H](CC(C)C)Nc2cc(C)nc(NCc3cccc(C)c3)n2)cc1")
90
>>> result("O=C(Nc1ccc2c(c1)CCN(C1CCC1)CC2)c1ccc(-c2cn3ccccc3n2)cc1")
42
>>> result("COc1ccc2nccc(N3CCC(SCCNS(=O)(=O)c4ccc5c(c4)OCCO5)C3)c2n1 (stereo not given)")
87
>>> result("CC(C)c1cn2c3c(cc(C(=O)N[C@@H](Cc4ccccc4)[C@H](O)CNC4CCCCC4)cc13)N(C)S(=O)(=O)CC2")
99
>>> result("CC(=O)Nc1ccc2[nH]cc(C3CCN(CCC4CCN(C(=O)/C=C/c5ccc(Cl)c(Cl)c5)CC4)CC3)c2n1")
80
>>> result("O=C(Nc1cccc(CN2CCN(C(=O)c3cccc(Cl)c3)CC2)c1)c1cccs1")
94
>>> result("O=C(NC1CCC(CCN2CCc3ccc(-c4cnccn4)cc3CC2)CC1)c1cccc(-n2cccn2)c1 (stereo not given)")
1
>>> result("CN1CCC(NCc2ccc(-c3cccc(S(=O)(=O)NCCc4ccccn4)c3)cc2)CC1")
-8
>>> result("OCC1CCCCN1Cc1cccc(-c2cccc(-c3nc4ccccc4[nH]3)c2)c1 (stereo not given)")
4
>>> result("O=C(N[C@@H](Cc1ccccc1)C(=O)NC1CCCCCC1)c1ccc(O)c(-c2ccc(Cl)c(Cl)c2)c1")
99
>>> result("COc1ccc2cc(-c3nc(-c4c(Cl)cccc4Cl)[nH]c3-c3ccnc(NCCC4CCCN4C)c3)ccc2c1 (stereo not given)")
82
>>> result("CCCCNCc1ccc(OCc2cccc(COc3ccc(CNCCCC)cc3)c2)cc1")
35
>>> result("CCc1ccccc1OCCCON1C(N)=NC(N)=NC1(C)C")
97
>>> result("C=CCNC(=O)CCCN=C(N)N")
12
>>> result("CN(c1ccccc1)c1ccnc(/N=C(\\N)Nc2ccc(Cl)cc2)n1")
6
>>> result("CCN(CCCN1CCCCC1)c1cc(C)nc(Nc2ccc(Cl)c(C(F)(F)F)c2)n1")
55
>>> result("O=C(NCc1ccc(Cl)cc1)c1ccc(CN2CCCN(CC3CCCCC3)CC2)cc1")
5
>>> result("COc1ccc2cc(-c3nc(-c4c(Cl)cccc4Cl)[nH]c3-c3ccnc(NCCCN4CCN(C)CC4)c3)ccc2c1")
80
